B1: H2-Kb / E8 (parent)
chain 1: GDSVTQTEGLVTVTEGLPVKLNCTYQTTYLTIAFFWYVQYLNEAPQVLLKSSTDNKRTEHQGFHATLHKSSSSFHLQKSSAQLSDSALYYCALNTNTGKLTFGDGTVLTVKP
chain 2: EAAVTQSPRNKVAVTGGKVTLSCNQTNNHNNMYWYRQDTGHGLRLIHYSYGAGSTEKGDIPDGYKASRPSQENFSLILELATPSQTSVYFCASGDWGAGTGQLYFGEGSKLTVL
chain 3: not shown
chain 4: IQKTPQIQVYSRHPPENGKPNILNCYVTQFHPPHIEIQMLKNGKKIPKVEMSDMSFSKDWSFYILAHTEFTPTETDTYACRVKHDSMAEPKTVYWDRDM
chain 5: SIINFEKL

variants of: B1; assay: % of reporter cells activated (NFAT-GFP), raw; settings: with E8; scale: % of reporter cells activated; also: test concentration or dose not given here
Catalogue of ratio to parent values
Lab note: jot the number down without any unit.

Recorded ratio to parent, per entry:
- MUTATION KEY: "chain 5 N4I"
  NUMERIC RESULT: 0.11
- MUTATION KEY: "chain 5 E6K"
  NUMERIC RESULT: 0.03
- MUTATION KEY: "chain 5 N4F"
  NUMERIC RESULT: 0.0343

Using known records, supply ratio to parent for chain 5 F5C
1.41

Using known records, supply ratio to parent for chain 5 N4G
0.104

Using known records, supply ratio to parent for chain 5 F5Q
0.682

Using known records, supply ratio to parent for chain 5 E6Q
0.115

Using known records, supply ratio to parent for chain 5 N4E
0.0223
